System: 616215-338-R-J1-PDC complex spheroid viability
Assay: Anticancer human tumor 616215-338-R-J1-PDC patient-derived colon adenocarcinoma cell line growth inhibition [POLQ]
Settings: curve of first compound; second compound 0.1 µM
pIC50: −log10 of the molar value.
Respond with Condition met for pIC50 values of 6 and above, Condition not met for values below.

Solved cases (3 shown):
{"COMPOUND": "CC[C@@]1(O)C(=O)OCc2c1cc1n(c2=O)Cc2cc3c(CN(C)C)c(O)ccc3nc2-1 + Nc1ccc(C#CCN(C(=O)Cc2ncc(C(F)(F)F)cc2C(F)(F)F)c2ccc(F)cc2)nn1", "LABEL VALUE": "Condition met"}
{"COMPOUND": "COc1ccc([C@@H](O)c2cc(-c3ncnc4cc(N5CCOCC5)ccc34)c(F)cc2Cl)nn1 + Nc1ccc(C#CCN(C(=O)Cc2ncc(C(F)(F)F)cc2C(F)(F)F)c2ccc(F)cc2)nn1", "LABEL VALUE": "Condition not met"}
{"COMPOUND": "O=c1[nH]cc(F)c(=O)[nH]1 + Nc1ccc(C#CCN(C(=O)Cc2ncc(C(F)(F)F)cc2C(F)(F)F)c2ccc(F)cc2)nn1", "LABEL VALUE": "Condition met"}

Prompt line: Evaluate COc1cccc(OCCCN)c1-c1cc(Nc2cnc(C#N)cn2)n[nH]1 + COC1C(OC(N)=O)C(O)C(Oc2ccc3c(O)c(NC(=O)c4ccc(O)c(CC=C(C)C)c4)c(=O)oc3c2C)OC1(C)C : pIC50 at minimum 6?
Response line: Condition not met

Prompt line: Here is the next compound: CNCc1ccc(-c2[nH]c3cc(F)cc4c3c2CCNC4=O)cc1 + COC1C(OC(N)=O)C(O)C(Oc2ccc3c(O)c(NC(=O)c4ccc(O)c(CC=C(C)C)c4)c(=O)oc3c2C)OC1(C)C
Response line: Condition not met

Prompt line: Here is the next compound: CC1COCCN1c1cc(-c2ccnn2C)c2ccnc(-c3ccn[nH]3)c2n1 (centres undefined) + COC1C(OC(N)=O)C(O)C(Oc2ccc3c(O)c(NC(=O)c4ccc(O)c(CC=C(C)C)c4)c(=O)oc3c2C)OC1(C)C
Response line: Condition met

Prompt line: Here is the next compound: COc1cc2cc(C(=O)CCC(=O)O)sc2cc1OC + Cc1cccc(N(C)C(=O)C2C(O)CCN2c2nc(C)cc(C(F)(F)F)c2C#N)c1
Response line: Condition not met

----------
System: 616215-338-R-J1-PDC complex spheroid viability
Assay: Anticancer human tumor 616215-338-R-J1-PDC cell line growth inhibition [POLQ];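 also: spheroids exposed to compounds for one week before readout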
Conditions: second compound 10 µM; first compound 0.1 µM; stronger effect = lower value
Lab note: anything with viability, T/C below 90% is marked condition met; values at 90% or higher are marked condition not met.

Solved cases (4 shown):
{"MOLECULE": "Nc1ccn(C2OC(CO)C(O)C2(F)F)c(=O)n1 (stereo not given) + Nc1ccc(C#CCN(C(=O)Cc2ncc(C(F)(F)F)cc2C(F)(F)F)c2ccc(F)cc2)nn1", "LABEL VALUE": "condition met"}
{"MOLECULE": "CCc1c2c(nc3ccc(O)cc13)-c1cc3c(c(=O)n1C2)COC(=O)[C@]3(O)CC + Nc1ccc(C#CCN(C(=O)Cc2ncc(C(F)(F)F)cc2C(F)(F)F)c2ccc(F)cc2)nn1", "LABEL VALUE": "condition met"}
{"MOLECULE": "CC1COCCN1c1cc(C2(O)CC3CCC(C2)O3)c2cnn(-c3ccn[nH]3)c2n1 (stereo not given) + Cc1cccc(N(C)C(=O)C2C(O)CCN2c2nc(C)cc(C(F)(F)F)c2C#N)c1", "LABEL VALUE": "condition not met"}
{"MOLECULE": "O=C(Nc1ccc(O)c(NS(=O)(=O)c2ccc(F)cc2)c1)c1ccc(-c2ccccc2)cc1 + COC1C(OC(N)=O)C(O)C(Oc2ccc3c(O)c(NC(=O)c4ccc(O)c(CC=C(C)C)c4)c(=O)oc3c2C)OC1(C)C", "LABEL VALUE": "condition not met"}

Prompt line: API: query returns whether the molecule falls strictly under 90% in viability, T/C. Query: COc1cccc2c1C(=O)c1c(O)c3c(c(O)c1C2=O)CC(O)(C(=O)CO)CC3OC1CC(N)C(O)C(C)O1 (stereo not given) + Cc1cccc(N(C)C(=O)C2C(O)CCN2c2nc(C)cc(C(F)(F)F)c2C#N)c1
Response line: condition met
